Test system: PPARg:RXRa 270nM:90nM, anti-RXR (NR concentration 270 nM, RXRa partner concentration 90 nM)
EXPERIMENTAL_PROTOCOL: PBM binding z-score (relative to random genomic background probes); higher = stronger binding; sequences stand for … in GC…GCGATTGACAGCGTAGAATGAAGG
Entries and their PBM binding z-score values follow.
Write the value as a bare number.

Sample records with PBM binding z-score:
# SEQ_STRING, MEAS_VALUE
rows = [
    ("CCGACTGGGGCAGAAAGGGTACCATACCATCCGG", 0.193),
    ("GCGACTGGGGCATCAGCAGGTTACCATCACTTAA", 0.547),
    ("CAGACTAGGTCAAGGTCAAAGTCGGTTTGTGCCA", 7.03),
    ("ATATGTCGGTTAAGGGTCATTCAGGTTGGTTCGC", 8.47),
]

Could you now look at the following sequence, please?
Query block: Give recorded PBM binding z-score. "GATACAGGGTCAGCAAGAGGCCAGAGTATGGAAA"
Result block: 3.6

* * *

Test system: PPARg:RXRa (NR concentration 180 nM, RXRa partner concentration 90 nM)
EXPERIMENTAL_PROTOCOL: PBM binding z-score (relative to random genomic background probes); higher = stronger binding; sequences stand for … in GC…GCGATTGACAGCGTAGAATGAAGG
Listed below: PBM binding z-score values for each entry.
Please respond with just the number, no unit label.

# SEQ_STRING, PBM binding z-score
rows = [
    ("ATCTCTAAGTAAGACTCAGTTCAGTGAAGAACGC", -0.0993),
    ("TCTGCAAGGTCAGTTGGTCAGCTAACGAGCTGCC", 1.45),
    ("TCTTGTAGAACAAGCAGGTTAAGAAAGCCTGAGT", -0.27),
    ("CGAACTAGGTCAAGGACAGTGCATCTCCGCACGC", 7.23),
    ("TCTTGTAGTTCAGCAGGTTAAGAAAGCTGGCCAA", -0.802),
]

Query block: Please respond with reported PBM binding z-score (system PPARg:RXRa (NR concentration 180 nM, RXRa partner concentration 90 nM)) for "TCAGACAGGTGAAGGAAACTCAGGTACGCAGTCG" .
Result block: 0.717

Query block: State PBM binding z-score (PPARg:RXRa (NR concentration 180 nM, RXRa partner concentration 90 nM)) of "ATCTCTCGGTAAAGTTCAGTGAAAGATCGATAGA" .
Result block: 1.08

Query block: Quote PPARg:RXRa (NR concentration 180 nM, RXRa partner concentration 90 nM) PBM binding z-score for entry "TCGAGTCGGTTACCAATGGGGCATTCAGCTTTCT" .
Result block: -0.641

Query block: Provide PPARg:RXRa (NR concentration 180 nM, RXRa partner concentration 90 nM) PBM binding z-score reading for "ATCTCTAGATAACAAGTTCAGTGAAAGAGAGGAC" .
Result block: 0.657

Query block: Provide PBM binding z-score, recorded with PPARg:RXRa (NR concentration 180 nM, RXRa partner concentration 90 nM), of "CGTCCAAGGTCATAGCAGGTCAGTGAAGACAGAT"
Result block: 5.23

Query block: Report the value of PBM binding z-score obtained on PPARg:RXRa (NR concentration 180 nM, RXRa partner concentration 90 nM) for "TCGAGTAGGTTACCCATGGGGCATTCAGCTTTCT" .
Result block: 0.462

Query block: Consider the sequence "GCATAGAGGTAATACAAGGTGAAAGTCCGATTGT" tested on PPARg:RXRa (NR concentration 180 nM, RXRa partner concentration 90 nM); state its PBM binding z-score.
Result block: 0.691

Query block: State the measured PBM binding z-score (PPARg:RXRa (NR concentration 180 nM, RXRa partner concentration 90 nM)) of "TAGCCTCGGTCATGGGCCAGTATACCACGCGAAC"
Result block: 0.374

Query block: Give measured PBM binding z-score for "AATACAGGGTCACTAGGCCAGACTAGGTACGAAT" (PPARg:RXRa (NR concentration 180 nM, RXRa partner concentration 90 nM)).
Result block: 7.65

Query block: Write down measured PBM binding z-score (PPARg:RXRa (NR concentration 180 nM, RXRa partner concentration 90 nM)) for this sequence. "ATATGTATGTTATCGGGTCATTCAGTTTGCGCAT"
Result block: 2.67

Query block: Provide measured PBM binding z-score on PPARg:RXRa (NR concentration 180 nM, RXRa partner concentration 90 nM) for "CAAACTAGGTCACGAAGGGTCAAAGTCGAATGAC" please.
Result block: 10.1

Query block: Report value only: PBM binding z-score, PPARg:RXRa (NR concentration 180 nM, RXRa partner concentration 90 nM), "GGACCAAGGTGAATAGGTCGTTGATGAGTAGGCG"
Result block: 1.47

* * *

Tested on: LXRa:RXRa (NR concentration 270 nM, RXRa partner concentration 90 nM)
EXPERIMENTAL_PROTOCOL: PBM binding z-score (relative to random genomic background probes); higher = stronger binding; sequences stand for … in GC…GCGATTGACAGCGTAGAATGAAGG
Label rule, in plain words: PBM binding z-score of 2 and up is y, under 2 is n.

Look over these answered cases.
# SEQ_STRING, CLASSIFICATION
measured = [
    ("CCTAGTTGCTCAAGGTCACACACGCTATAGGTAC", "y"),
    ("CCAGACAGCTGAGAAGGTAACTCAGCCTCGATTA", "n"),
]

Query block: Test whether the sequence "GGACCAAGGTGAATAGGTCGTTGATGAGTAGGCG" records PBM binding z-score of 2 or higher.
Result block: n

Query block: Kindly determine if PBM binding z-score recorded for "GATACAGGGTCACCTAGAGGCCAGAGTATGGAAA" is above or exactly 2.
Result block: y

Query block: Reported PBM binding z-score reaches at least 2 for "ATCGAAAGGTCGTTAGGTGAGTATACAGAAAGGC" ?
Result block: y

Query block: Identify whether the reported PBM binding z-score of the following sequence is 2 or greater: "ATCTATAGGTAAAGATAGTTCAGTGAATGCAAAT"
Result block: y

Query block: Say whether "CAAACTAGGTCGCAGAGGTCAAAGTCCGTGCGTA" shows PBM binding z-score of 2 or more.
Result block: y

Query block: Item "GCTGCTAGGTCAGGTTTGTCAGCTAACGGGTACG" with PBM binding z-score of 2 or above?
Result block: n

Query block: Answer whether PBM binding z-score of "CCTACTGGGCCAAAGGTCATTGAATCCAATGCTC" is greater than or equal to 2.
Result block: y

* * *

Recorded PBM binding z-score values for a group of sequences are listed next.
Tested on: LXRb homodimer (NR concentration 270 nM)
EXPERIMENTAL_PROTOCOL: PBM binding z-score (relative to random genomic background probes); higher = stronger binding; sequences stand for … in GC…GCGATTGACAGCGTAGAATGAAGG
Write no unit; give the number alone.

# SEQ_STRING, PBM binding z-score
records = [
    ("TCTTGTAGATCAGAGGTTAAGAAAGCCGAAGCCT", -0.128),
    ("TGTTGTAGATCAGCAGGTTAAGAAAGCTGGCCAA", -0.822),
    ("CTCGAAAGGTCGGATGAGGTGAGTATACGGATAA", -0.334),
]

Query block: Indicate the recorded PBM binding z-score value for this sequence: "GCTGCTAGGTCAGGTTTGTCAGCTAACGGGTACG"
Result block: -0.389

Query block: Kindly indicate its recorded PBM binding z-score. Item: "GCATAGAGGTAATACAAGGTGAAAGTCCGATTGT"
Result block: -0.79

Query block: Query PBM binding z-score for "AGGATGAGGTTACCAAAGATCAGGGAAACGCTTG"
Result block: 0.353

Query block: Using the record for "CCTCGGAGGACAGAAGGCCAGAGCTGTCCGCTTT" , state its measured PBM binding z-score.
Result block: -1.6

Query block: Output measured PBM binding z-score for this item: "ACTATTAGTTGACTTAGGGCAGCCGATACGACGC"
Result block: 0.721

* * *

Tested on: PPARg:RXRa 30nM:10nM, anti-RXR (NR concentration 30 nM, RXRa partner concentration 10 nM)
EXPERIMENTAL_PROTOCOL: PBM binding z-score (relative to random genomic background probes); higher = stronger binding; sequences stand for … in GC…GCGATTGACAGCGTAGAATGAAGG
Reported values of PBM binding z-score for individual entries
Form rule: numeric answer, no unit written next to it.

Some sequences with known PBM binding z-score results, for comparison:
# SEQ_STRING, PBM binding z-score
measured = [
    ("TGGATGAGGTTATAAGATCAGGGAACGTTGCAAA", 0.844),
    ("GCGACTGGTGCAAAGCAGGTTACCATAAGGTTGG", -0.591),
    ("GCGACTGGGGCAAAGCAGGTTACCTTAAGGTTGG", -0.661),
    ("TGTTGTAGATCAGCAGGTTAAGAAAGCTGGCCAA", -0.287),
    ("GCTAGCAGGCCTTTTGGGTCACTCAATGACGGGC", -0.68),
]

Query block: Find the measured PBM binding z-score of "TCTGACAGGTGAAGGTAACTCAGGTACGCAGTCG" and report it.
Result block: 2.9

Query block: Please indicate PBM binding z-score recorded for "CAAACTAGGACACGAAAGGTCAAAGTCGAATGAC"
Result block: 3.92

Query block: # return recorded PBM binding z-score for input "CAAACTAGGTCACGGGAAGGTCAAAGTCCGCATG"
Result block: 6.78

Query block: Could you please provide reported PBM binding z-score for "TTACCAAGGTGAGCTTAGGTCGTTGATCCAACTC" ? Thanks!
Result block: -0.0893

Query block: Give the value of PBM binding z-score reported for the following: "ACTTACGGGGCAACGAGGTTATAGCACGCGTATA"
Result block: 0.448

Query block: Query PBM binding z-score for "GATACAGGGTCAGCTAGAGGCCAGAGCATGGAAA"
Result block: 1.01

Query block: Return PBM binding z-score for the following sequence: "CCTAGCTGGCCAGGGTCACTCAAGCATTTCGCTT"
Result block: -0.834

Query block: Tell me its PBM binding z-score given "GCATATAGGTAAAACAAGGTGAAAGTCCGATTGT" as the entry.
Result block: 0.57
